Hi there, I'd appreciate the recorded Kd for every entry that follows.
test target: T1, Eukaryotic initiation factor 4E (eIF4E), full-length human (human, UniProt P06730 1-217)
T1 construct: eIF4E, human, full length
T1 sequence (P06730 whole entry): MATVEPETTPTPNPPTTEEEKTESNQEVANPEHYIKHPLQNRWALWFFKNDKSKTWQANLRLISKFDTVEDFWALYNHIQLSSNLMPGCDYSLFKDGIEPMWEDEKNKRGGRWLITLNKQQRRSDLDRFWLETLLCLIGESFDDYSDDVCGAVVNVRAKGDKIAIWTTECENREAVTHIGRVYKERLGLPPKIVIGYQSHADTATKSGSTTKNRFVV
procedure text: SPR; eIF4E amine coupled to a CM5 chip (about 1000 RU, m7GTP present at immobilisation), peptides injected; 10 mM Hepes pH 7.6, 0.15 M NaCl, 1 mM DTT, 0.1% Tween20, 3% DMSO; Biacore T100; Kd from the association and dissociation phases (Kkin), 1:1 model, three titrations
applied conditions: both partners purified
One number for each entry, in nM.

Use these answered entries as a reference point.
binder: KKRYDRDFLLGF (eIF4G1 peptide with E7D; also called E7D mutant peptide; source: synthetic peptide (Mimotopes), HPLC purified to >90%) [eIF4G1-E7D peptide]
Kd, nM: 759
//
binder: KKRYSREFLLGF (eIF4G1 peptide with D5S; also called eIF4G-D5S; source: synthetic peptide (Mimotopes), HPLC purified to >90%) [eIF4G1-D5S peptide]
Kd, nM: 99.9
//
binder: KKRYDREFLVGF (eIF4G1 peptide with L10V; source: synthetic peptide (Mimotopes), HPLC purified to >90%) [eIF4G1-L10V peptide]
Kd, nM: 2680

Note: attention shifts to another entry.
Exercise: Look up Kd: KKRYDREQLLGF (eIF4G1 peptide with F8Q; also called eIF4G-F/Q; source: synthetic peptide (Mimotopes), HPLC purified to >90%) [eIF4G1-F8Q peptide]
Solution: 1780
